- Test Details: in vivo rat PK study, aqueous liquid suspension with 0.5% w/v Hydroxypropyl Cellulose and 0.5% w/v Poloxamer F-68 (Example 8)
- Condition Summary: in vivo, po, 10 mg/kg, oral 10 mg/kg of Compound 1, 5 mL/kg, suspension in 0.5% HPC / 0.5% Poloxamer F-68
Measurement Type: AUC(0-inf) (ng·h/mL)
Only the number, expressed in ng·h/mL, is required.

>  <Molecule>
Cc1ccc(NC(=O)[C@H]2CCCN(C(=O)c3c(C)cccc3F)[C@H]2c2ccc(NC3CCCC3)cc2)cc1C(F)(F)F.O=S(=O)(O)c1ccccc1 [Besylate Salt (Form I)]

>  <Measurement Type>
AUC(0-inf)

>  <Value Unit>
ng·h/mL

>  <Recorded Result>
2600

$$$$

Shifting focus to the molecule that follows.
Look up AUC(0-inf): Cc1ccc(NC(=O)[C@H]2CCCN(C(=O)c3c(C)cccc3F)[C@H]2c2ccc(NC3CCCC3)cc2)cc1C(F)(F)F.Cc1ccc(S(=O)(=O)O)cc1 [Tosylate Salt (Form I)] 4150
